# procedure_text: in vitro
# reported_conditions: human, hela cells, % viability
# strict inequality: viability at 28.5 h, 10 µM < 90% yields Fulfilled, everything else yields Not fulfilled

Below are worked cases with known answers.
In [3]: df
Out[3]:
                                   compound  assigned_label
0  COCCNC(=O)c1cc(-c2ccc(C)s2)nc2c1cnn2C(C)C   Not fulfilled
1  COc1ccc(CNC(=O)c2sc3ncnc(N(C)C4CCCCC4)c3c2C)cc1       Fulfilled
2  O=C(CC1(O)C(=O)N(Cc2ccccc2)c2ccccc21)c1cc2ccccc2oc1=O (centres unmarked)   Not fulfilled
3       O=C(COc1ccc(F)cc1F)NNC(=S)NC1CCCCC1       Fulfilled
4           O=C(CCCc1ccccc1)Nc1ccccc1C(=O)O   Not fulfilled
5    O=C(NCc1ccsc1)N1CCCN(Cc2ccc(Cl)cc2)CC1       Fulfilled

Input: Dear reviewer, please state whether CC(C)C(=O)N1CCC(Cn2nc(-c3ccccc3)ccc2=O)CC1 has viability at 28.5 h, 10 µM strictly beneath 90%.
Output: Fulfilled

Input: Dear reviewer, please state whether CCOc1cc(/C=N\NC(=O)CNc2ccccc2C)cc(Br)c1O has viability at 28.5 h, 10 µM strictly beneath 90%.
Output: Fulfilled

Input: Dear reviewer, please state whether CCN1C(=O)c2ccccc2C(=O)[C@@]2(C)CN(C(=O)C3CC3)C[C@@H]12 has viability at 28.5 h, 10 µM strictly beneath 90%.
Output: Fulfilled

###

# procedure_text: in vitro
# reported_conditions: human, hela cells, % viability
Attribute: viability at 28.5 h, 10 µM
Reply with just the number (in %).

Here's what some known entries look like.
>>> df
                                   compound                   parameter  assay_value
0          COc1ccc(S(=O)(=O)N2CCN(C)CC2)cn1  viability at 28.5 h, 10 µM         85.9
1  Cn1c(COc2ccc(Cl)cc2Cl)nnc1SCC(=O)N1c2ccccc2SC2C=CC=CC21 (centres unmarked)  viability at 28.5 h, 10 µM          103
2  COc1ccc(C2CC(c3ccc(Cl)cc3)Nc3ncnn32)c(OC)c1 (centres unmarked)  viability at 28.5 h, 10 µM         98.7

Input: Item COc1cc(C(=O)N2CCC3(CC2)CC(=O)c2ccc(C)cc2O3)ccc1O : provide viability at 28.5 h, 10 µM
Output: 86.6

Input: Item O=C1COc2ccccc2C/C=C/CC2(CCCN(C(=O)Cn3ccnc3)C2)CN1 (centres unmarked) : provide viability at 28.5 h, 10 µM
Output: 107

###

# procedure_text: in vitro
# reported_conditions: human, hela cells, % viability
parameter: viability at 28.5 h, 10 µM (%)
Reply with just the number (in %).

Here's what some known entries look like.
>>> print(df.to_string())
                                   molecule  u  assay_value
0  CCNC(=O)Nc1ncc(-c2ccc3c(c2)OCCCO3)c2cccnc12  %          104
1  COc1ccnc(N2C[C@@H]3OCC(=O)N(Cc4ccccc4)[C@@H]3C2)n1  %           91
2              Clc1ccccc1-c1nccnc1NCc1cccs1  %         98.6
3  COc1ccc([C@@]23CC[C@@H](NS(=O)(=O)c4ccc5ccccc5c4)C[C@@H]2N(C)CC3)cc1OC [CBK056848T]  %         96.8
4         C(=N/OCc1ccccc1)/c1c[nH]c2ccccc12  %         79.3
5            Cc1ccc(-c2csc3ncn4nnnc4c23)cc1  %         92.5
6  CC(CNC(=O)C(C)(C)C)NC(=O)C(C)(C)C (stereo not drawn)  %         93.6
7  CC(NC(=O)C1CCN(CCn2cnc3c2c(=O)n(C)c(=O)n3C)CC1)c1ccccc1 (stereo not drawn)  %         99.4

Input: Item O=C(CC[C@@H]1CNC(=O)[C@@H]2C[C@H](NC(=O)C3CC3)CN12)Nc1ccccc1 : provide viability at 28.5 h, 10 µM
Output: 113

###

# procedure_text: in vitro
# reported_conditions: human, hela cells, % viability
parameter: viability at 28.5 h, 10 µM (%)
Reply with just the number (in %).

                                   compound  u  assay_value
0  Cc1nn(C)c(C)c1CCC(=O)NCC(C)Oc1ccccc1F (stereo not drawn) [CBK305194]  %         94.3

Input: Item CN(CC(O)CO)C(=O)c1coc(COc2cccc(F)c2)n1 (stereo not drawn) [CBK306854] : provide viability at 28.5 h, 10 µM
Output: 88.5

Input: Item COc1ccc(OCCNC(=O)c2cc(Br)cnc2N2CCOCC2)cc1 [CBK076214] : provide viability at 28.5 h, 10 µM
Output: 88

###

Attribute: viability at 28.5 h, 10 µM
# procedure_text: in vitro
# reported_conditions: human, hela cells, % viability
Reply with just the number (in %).

Input: Item Cc1nn(C)cc1-c1cncn1C(C)c1ccc2c(c1)CCCO2 (centres unmarked) : provide viability at 28.5 h, 10 µM
Output: 100

Input: Item O=C(CN1CCCCC1)Nc1c(-c2ccccc2)c2cc(Br)ccc2[nH]c1=O : provide viability at 28.5 h, 10 µM
Output: 94.7

Input: Item O=C(COc1ccc2ccccc2c1)Nc1ccc(CN2CCOCC2)cc1 : provide viability at 28.5 h, 10 µM
Output: 121

Input: Item Cc1ccc(Cc2cnc(NC(=O)NCCN3CCOCC3)s2)cc1F : provide viability at 28.5 h, 10 µM
Output: 93.6

Input: Item O=C(Nc1ccccc1C(=O)O)c1ccc(Cl)c(S(=O)(=O)N2CCCCC2)c1 : provide viability at 28.5 h, 10 µM
Output: 113

Input: Item CCCn1ccnc1CN1CCCC(CC2CC2)(C(=O)O)C1 (centres unmarked) : provide viability at 28.5 h, 10 µM
Output: 100

Input: Item COc1ccccc1CC(C)NC(=O)CC1CCN(c2nc(C)cc(C)n2)CC1 (centres unmarked) : provide viability at 28.5 h, 10 µM
Output: 111

Input: Item O=C(NCc1ccc(OC2CCNCC2)cc1)c1ccccn1 [CBK036361T] : provide viability at 28.5 h, 10 µM
Output: 93.1

Input: Item CCn1cc(CN(CC(C)C)C(=O)c2c(C)nc3ccccn23)cn1 : provide viability at 28.5 h, 10 µM
Output: 97.8

Input: Item Cc1nc(C2CCCN(C(=O)c3ccncc3)C2)c2sccn12 (centres unmarked) : provide viability at 28.5 h, 10 µM
Output: 90.8

Input: Item Cc1ccccc1-n1ncc2c1ncn1nc(-c3ccccc3)nc21 : provide viability at 28.5 h, 10 µM
Output: 94.3

Input: Item CN1CCN(C(=O)CCC2CCCO2)C(c2ccccc2)C1 (centres unmarked) : provide viability at 28.5 h, 10 µM
Output: 101

Input: Item COc1ccc(C(C)C)cc1-c1nccnc1NCCc1c[nH]c2ccccc12 : provide viability at 28.5 h, 10 µM
Output: 109

Input: Item Cn1nccc1CN1CCC(Oc2ccccc2F)CC1 : provide viability at 28.5 h, 10 µM
Output: 92

Input: Item O=C(c1ccccc1F)N1CCC(c2cc3ncccc3[nH]2)CC1 : provide viability at 28.5 h, 10 µM
Output: 86.5

###

# procedure_text: in vitro
# reported_conditions: human, hela cells, % viability
parameter: viability at 28.5 h, 10 µM (%)
Reply with just the number (in %).

In [3]: df
Out[3]:
                                   compound  assay_value
0     O=C(CCCN1C(=O)c2cccc3cccc(c23)C1=O)NO           92
1  CO[C@@H](C(=O)Nc1cnc(-c2cccc(C)c2)c(-c2ccco2)n1)c1ccccc1          105
2  COC(=O)c1ccc(Cl)c(NC(=O)CSc2nnc(-c3ccncc3)[nH]2)c1          105
3                     Cn1c(S)nnc1-c1ccccc1F           95

Moving on to the next compound.
Input: Item COc1ccc2c(c1)C(O)CC1(CCN(CC(O)c3ccc(-c4ccccc4)cc3)CC1)O2 (centres unmarked) : provide viability at 28.5 h, 10 µM
Output: 101

###

Attribute: viability at 28.5 h, 10 µM
# procedure_text: in vitro
# reported_conditions: human, hela cells, % viability
Reply with just the number (in %).

In [3]: df
Out[3]:
                       molecule  assay_value
0     c1cc(-c2nnc3n2CCCCS3)ccn1         99.3
1  CO/N=C(\C(=O)O)c1cn2cccnc2n1         91.5

Input: Item O=C(O)Cc1nnnn1-c1ccccc1 : provide viability at 28.5 h, 10 µM
Output: 102

Input: Item CN(C)S(=O)(=O)N(C)c1ccc(C(=O)O)cc1 : provide viability at 28.5 h, 10 µM
Output: 105

Input: Item O=C(Nc1ccc(O)c(C(=O)O)c1)c1ccc2c(c1)C(=O)N(CC1CCCO1)C2=O (stereo not shown) : provide viability at 28.5 h, 10 µM
Output: 101

Input: Item CN1CCN(C2Cc3ccccc3Sc3c(O)cccc32)CC1 (stereo not shown) [CBK026200G] : provide viability at 28.5 h, 10 µM
Output: 98

Input: Item N#CC(c1ccc(O)cc1)N1CCCCC1 (stereo not shown) : provide viability at 28.5 h, 10 µM
Output: 94.4

Input: Item CCCCC1(COC(C)=O)OC(=O)Nc2ccc(Br)cc21 (stereo not shown) : provide viability at 28.5 h, 10 µM
Output: 91.1

Input: Item COc1cc(CN2CCNCC2)c2ccn(S(=O)(=O)c3cccc(Cl)c3C)c2c1 [CBK144484T] : provide viability at 28.5 h, 10 µM
Output: 87.1

Input: Item O=C(NC1CCCC1)c1ccc(-c2cnc3[nH]c(=O)n(CCCN4CCOCC4)c3n2)cc1 : provide viability at 28.5 h, 10 µM
Output: 102
